Cited source for all entries: the supplement of paper PMC5998384

What melting temperature was measured for each of the following?
Test system: HeLa Kyoto;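 also: HeLa Kyoto cells synchronized by double thymidine or nocodazole block, proteins quantified by TMT10plex mass spectrometry, three independent biological replicates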
assay explanation: melting temperature (median over replicates), in situ; higher = more thermally stable
study conditions: cell cycle stage: mitosis
One number for each entry, in °C.

| substance | measured target | melting temperature [°C] |
| --- | --- | --- |
| MGLGPVFLLLAGIFPFAPPGAAAEPHSLRYNLTVLSWDGSVQSGFLTEVHLDGQPFLRCDRQKCRAKPQGQWAEDVLGNKTWDRETRDLTGNGKDLRMTLAHIKDQKEGLHSLQEIRVCEIHEDNSTRSSQHFYYDGELFLSQNLETKEWTMPQSSRAQTLAMNVRNFLKEDAMKTKTHYHAMHADCLQELRRYLKSGVVLRRTVPPMVNVTRSEASEGNITVTCRASGFYPWNITLSWRQDGVSLSHDTQQWGDVLPDGNGTYQTWVATRICQGEEQRFTCYMEHSGNHSTHPVPSGKVLVLQSHWQTFHVSAVAAAAIFVIIIFYVRCCKKKTSAAEGPELVSLQVLDQHPVGTSDHRDATQLGFQPLMSDLGSTGSTEGA [MICA] | HeLa Kyoto | 57.2 |
| MAVARLAAVAAWVPCRSWGWAAVPFGPHRGLSVLLARIPQRAPRWLPACRQKTSLSFLNRPDLPNLAYKKLKGKSPGIIFIPGYLSYMNGTKALAIEEFCKSLGHACIRFDYSGVGSSDGNSEESTLGKWRKDVLSIIDDLADGPQILVGSSLGGWLMLHAAIARPEKVVALIGVATAADTLVTKFNQLPVELKKEVEMKGVWSMPSKYSEEGVYNVQYSFIKEAEHHCLLHSPIPVNCPIRLLHGMKDDIVPWHTSMQVADRVLSTDVDVILRKHSDHRMREKADIQLLVYTIDDLIDKLSTIVN [ABHD10] | HeLa Kyoto | 57.6 |
| MSALLRLLRTGAPAAACLRLGTSAGTGSRRAMALYHTEERGQPCSQNYRLFFKNVTGHYISPFHDIPLKVNSKEENGIPMKKARNDEYENLFNMIVEIPRWTNAKMEIATKEPMNPIKQYVKDGKLRYVANIFPYKGYIWNYGTLPQTWEDPHEKDKSTNCFGDNDPIDVCEIGSKILSCGEVIHVKILGILALIDEGETDWKLIAINANDPEASKFHDIDDVKKFKPGYLEATLNWFRLYKVPDGKPENQFAFNGEFKNKAFALEVIKSTHQCWKALLMKKCNGGAINCTNVQISDSPFRCTQEEARSLVESVSSSPNKESNEEEQVWHFLGK [PPA2] | HeLa Kyoto | 55.1 |
| MRPLLGLLLVFAGCTFALYLLSTRLPRGRRLGSTEEAGGRSLWFPSDLAELRELSEVLREYRKEHQAYVFLLFCGAYLYKQGFAIPGSSFLNVLAGALFGPWLGLLLCCVLTSVGATCCYLLSSIFGKQLVVSYFPDKVALLQRKVEENRNSLFFFLLFLRLFPMTPNWFLNLSAPILNIPIVQFFFSVLIGLIPYNFICVQTGSILSTLTSLDALFSWDTVFKLLAIAMVALIPGTLIKKFSQKHLQLNETSTANHIHSRKDT [TMEM41A] | HeLa Kyoto | 55.5 |

Can you give me melting temperature for all of these, one by one?
1. CREBBP
2. MEVTGVSAPTVTVFISSSLNTFRSEKRYSRSLTIAEFKCKLELLVGSPASCMELELYGVDDKFYSKLDQEDALLGSYPVDDGCRIHVIDHSGARLGEYEDVSRVEKYTISQEAYDQRQDTVRSFLKRSKLGRYNEEERAQQEAEAAQRLAEEKAQASSIPVGSRCEVRAAGQSPRRGTVMYVGLTDFKPGYWIGVRYDEPLGKNDGSVNGKRYFECQAKYGAFVKPAVVTVGDFPEEDYGLDEI [TBCB]

Outgoing:
1: 53.2; 2: 50.2
